Tested on: PIP5K2C;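 also: KINOMEscan kinase panel screen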
Construct: gene PIP4K2C
CONDITION_CONTEXT: concentration: 1 μM, replicates: in singlicate; n = 1
EXPERIMENTAL_ENDPOINT: %Inh
# number then unit; no other words

%Inh of CSc1ccc(-c2cc3ncnc(SCC(=O)O)c3s2)cc1 , assay on PIP5K2C, is 7%

%Inh of CN(C1=C(c2ccccc2)C(=O)NC1=O)c1ccccc1 [SB-334860] , assay on PIP5K2C, is 10%

%Inh of O=C1NC(=O)C(N2CCc3ccccc32)=C1c1cccc(Cl)c1 [SB-408010] , assay on PIP5K2C, is 0%

%Inh of CN1c2ccc(NCc3ccc(F)cc3)cc2-c2c(cnn2C)S1(=O)=O , assay on PIP5K2C, is 3%

%Inh of COc1cc2ncn(-c3cc(OCc4sccc4Cl)c(C(N)=O)s3)c2cc1OC [GSK448459] , assay on PIP5K2C, is 50%
